Source listed as BindingDB's records for doi:10.1021/jm00089a028.

# TARGET_OR_TEST_SYSTEM: Endothelin receptor type B (Sus scrofa)
# EXPERIMENT_NOTES: Binding activity against Endothelin B receptor 0f Porcine cerebellum membranes
Residues, ends and D or L forms follow the SMILES beside them.
READOUT_KIND: IC50 (µM)
Numbers only, in µM.

MOLECULE	READOUT_KIND	ENDPOINT_RESULT
CC(C)C[C@@H]1NC(=O)[C@@H](C(C)C)NC(=O)[C@H](C)N(C)C(=O)[C@@H](CC(=O)O)NC(=O)[C@@H](Cc2c[nH]c3ccccc23)NC1=O (HELM PEPTIDE1{L.[dW].[dD].[meA].[dV]}$PEPTIDE1,PEPTIDE1,1:R1-5:R2$$$V2.0)	IC50	47

// below: IC50 requested for another molecule
// molecule CC(C)C[C@@H]1NC(=O)[C@@H](C(C)C)NC(=O)CN(C)C(=O)[C@@H](CC(=O)O)NC(=O)[C@@H](Cc2c[nH]c3ccccc23)NC1=O (HELM PEPTIDE1{L.[dW].[dD].[Sar].[dV]}$PEPTIDE1,PEPTIDE1,1:R1-5:R2$$$V2.0) , assay Endothelin receptor type B (Sus scrofa), IC50 value: 30
